- Target or test system: PI3K p110γ (Homo sapiens, UniProt P48736)
- Sequence (P48736 whole entry): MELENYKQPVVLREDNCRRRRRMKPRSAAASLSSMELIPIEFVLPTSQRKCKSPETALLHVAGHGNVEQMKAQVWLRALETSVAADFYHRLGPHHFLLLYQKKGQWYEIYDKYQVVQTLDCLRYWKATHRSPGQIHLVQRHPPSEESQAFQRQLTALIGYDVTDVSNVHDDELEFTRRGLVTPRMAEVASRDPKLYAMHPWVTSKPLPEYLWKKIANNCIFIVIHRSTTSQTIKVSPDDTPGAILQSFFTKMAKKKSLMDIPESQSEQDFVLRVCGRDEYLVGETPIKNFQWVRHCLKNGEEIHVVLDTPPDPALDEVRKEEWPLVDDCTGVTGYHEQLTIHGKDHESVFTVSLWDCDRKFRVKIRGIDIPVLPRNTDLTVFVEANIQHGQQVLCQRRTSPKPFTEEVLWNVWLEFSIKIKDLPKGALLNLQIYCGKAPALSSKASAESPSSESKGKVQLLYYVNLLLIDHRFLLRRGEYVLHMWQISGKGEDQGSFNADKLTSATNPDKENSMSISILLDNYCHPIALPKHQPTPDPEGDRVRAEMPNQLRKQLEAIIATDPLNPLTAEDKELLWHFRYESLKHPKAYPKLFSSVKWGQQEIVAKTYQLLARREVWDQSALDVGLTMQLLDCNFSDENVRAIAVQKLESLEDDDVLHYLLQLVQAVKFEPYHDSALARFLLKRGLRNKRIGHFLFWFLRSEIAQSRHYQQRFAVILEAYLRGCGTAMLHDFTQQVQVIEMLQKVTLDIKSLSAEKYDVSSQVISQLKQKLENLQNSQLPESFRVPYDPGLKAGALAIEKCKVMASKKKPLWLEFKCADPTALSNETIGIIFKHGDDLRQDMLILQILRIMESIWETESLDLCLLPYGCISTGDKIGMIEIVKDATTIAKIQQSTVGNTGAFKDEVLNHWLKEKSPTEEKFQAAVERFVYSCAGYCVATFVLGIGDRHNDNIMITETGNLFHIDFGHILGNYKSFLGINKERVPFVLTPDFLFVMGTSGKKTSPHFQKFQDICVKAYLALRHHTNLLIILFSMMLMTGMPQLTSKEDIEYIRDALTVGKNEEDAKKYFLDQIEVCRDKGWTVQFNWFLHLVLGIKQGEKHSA
- Measurement notes: Cellular p110γ signaling: basophil activation with fMLP (Flow2 CAST)
- Details: cellular assay
Observed property: EC50

• C[C@H](Nc1ncnc2[nH]cnc12)c1nc2ccc(F)cc2c(=O)n1-c1ccccc1 = 2350 nM

----------
- Target or test system: PI3K p110α (Homo sapiens, UniProt P42336)
- Sequence (P42336 whole entry): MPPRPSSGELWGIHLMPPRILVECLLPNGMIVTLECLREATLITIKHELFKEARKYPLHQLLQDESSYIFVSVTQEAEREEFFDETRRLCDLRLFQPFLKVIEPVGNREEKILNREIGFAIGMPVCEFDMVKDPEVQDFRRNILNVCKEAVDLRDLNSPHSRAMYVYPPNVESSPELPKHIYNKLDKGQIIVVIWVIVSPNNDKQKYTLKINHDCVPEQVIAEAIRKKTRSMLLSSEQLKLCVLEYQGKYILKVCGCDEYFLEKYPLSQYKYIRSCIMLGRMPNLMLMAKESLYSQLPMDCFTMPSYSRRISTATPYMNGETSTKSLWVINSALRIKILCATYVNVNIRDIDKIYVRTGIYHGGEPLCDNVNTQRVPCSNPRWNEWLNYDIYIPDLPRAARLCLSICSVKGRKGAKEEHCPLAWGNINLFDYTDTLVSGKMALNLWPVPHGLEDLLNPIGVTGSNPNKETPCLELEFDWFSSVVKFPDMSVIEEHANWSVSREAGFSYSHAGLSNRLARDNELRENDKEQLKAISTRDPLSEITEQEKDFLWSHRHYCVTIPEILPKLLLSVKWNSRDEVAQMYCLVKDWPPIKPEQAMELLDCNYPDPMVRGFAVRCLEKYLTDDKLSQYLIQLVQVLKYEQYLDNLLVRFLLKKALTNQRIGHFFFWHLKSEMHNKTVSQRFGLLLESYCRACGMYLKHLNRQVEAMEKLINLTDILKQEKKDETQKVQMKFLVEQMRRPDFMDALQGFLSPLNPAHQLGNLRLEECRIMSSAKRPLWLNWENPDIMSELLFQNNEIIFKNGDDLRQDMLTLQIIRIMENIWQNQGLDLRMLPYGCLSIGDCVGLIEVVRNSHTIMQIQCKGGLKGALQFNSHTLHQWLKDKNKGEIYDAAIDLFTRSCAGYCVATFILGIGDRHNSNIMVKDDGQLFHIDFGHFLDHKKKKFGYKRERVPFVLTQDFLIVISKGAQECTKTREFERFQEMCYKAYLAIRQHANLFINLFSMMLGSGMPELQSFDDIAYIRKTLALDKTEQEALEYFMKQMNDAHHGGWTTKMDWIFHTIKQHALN
- Sequence (P27986 whole entry partner): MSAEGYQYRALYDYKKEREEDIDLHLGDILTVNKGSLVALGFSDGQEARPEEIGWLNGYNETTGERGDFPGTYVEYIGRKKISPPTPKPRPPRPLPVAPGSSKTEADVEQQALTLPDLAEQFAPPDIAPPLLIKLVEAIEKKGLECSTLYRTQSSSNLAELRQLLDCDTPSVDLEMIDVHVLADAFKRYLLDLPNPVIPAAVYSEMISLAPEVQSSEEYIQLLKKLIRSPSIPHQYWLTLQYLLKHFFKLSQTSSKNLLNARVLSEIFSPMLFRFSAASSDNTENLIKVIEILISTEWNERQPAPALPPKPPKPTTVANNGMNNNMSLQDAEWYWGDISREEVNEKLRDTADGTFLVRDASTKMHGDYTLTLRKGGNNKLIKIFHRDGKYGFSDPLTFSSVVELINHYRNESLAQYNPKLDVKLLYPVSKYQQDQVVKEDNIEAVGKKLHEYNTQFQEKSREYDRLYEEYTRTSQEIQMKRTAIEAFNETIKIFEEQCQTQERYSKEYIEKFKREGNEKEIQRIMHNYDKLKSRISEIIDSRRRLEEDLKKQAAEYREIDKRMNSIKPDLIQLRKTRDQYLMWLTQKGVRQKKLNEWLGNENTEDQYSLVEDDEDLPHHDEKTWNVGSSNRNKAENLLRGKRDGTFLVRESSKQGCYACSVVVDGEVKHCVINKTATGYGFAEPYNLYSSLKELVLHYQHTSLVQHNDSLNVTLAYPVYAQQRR
Observed property: IC50 (nM)

* C[C@H](Nc1ncnc2[nH]cnc12)c1nc2ccc(F)cc2c(=O)n1-c1ccccc1 | 303

----------
- Measurement notes: Mouse PK
- Format: in vivo
- Details: plasma, PO 20 mg/kg
Observed property: AUC

* CC(Nc1ncnc2[nH]cnc12)c1nc2cccc(Cl)c2c(=O)n1-c1ccccc1 (stereo not shown) | 1500 ng·h/mL

----------
- Measurement notes: In vivo PK (cannulated rat, IV and PO)
- Details: rat, plasma, po, 3 mg/kg, PO 3 mg/kg, mean of 3 rats; read-out: Cmax
Observed property: Cmax (ng/mL)

- CC(Nc1ncnc2[nH]cnc12)c1nc2cccc(Cl)c2c(=O)n1-c1ccccc1 (stereo not shown) [Compound A]: 456

----------
- Measurement notes: In vivo PK (cannulated rat, IV and PO)
- Details: rat, plasma, po, 3 mg/kg, PO 3 mg/kg, mean of 3 rats
Observed property: AUC(0-t) (ng·h/mL)

• CC(Nc1ncnc2[nH]cnc12)c1nc2cccc(Cl)c2c(=O)n1-c1ccccc1 (stereo not shown) [Compound A] = 2000

----------
- Test system: KM-12
- Measurement notes: pAkt pathway inhibition, KM-12
- Type: cell-based
- Details: Homo sapiens, KM12; KM-12, Colon
Observed property: EC50 (nM)

• CC(Nc1ncnc2[nH]cnc12)c1nc2cccc(Cl)c2c(=O)n1-c1ccccc1 (stereo not shown) = 897

----------
- Tested on: U251
- Measurement notes: pAkt pathway inhibition, U251
- Assay type: cell-based
- Details: Homo sapiens, U-251; U251, Glioma
Observed property: EC50

- CC(Nc1ncnc2[nH]cnc12)c1nc2cccc(Cl)c2c(=O)n1-c1ccccc1 (stereo not shown): 2250 nM

----------
- Measurement notes: In vivo PK (cannulated rat, IV and PO)
- Details: rat, plasma, po, 3 mg/kg, PO 3 mg/kg, individual rats; read-out: T½ (converted)
Observed property: half-life (h)

* CC(Nc1ncnc2[nH]cnc12)c1nc2cccc(Cl)c2c(=O)n1-c1ccccc1 (stereo not shown) | 2.9

----------
- Measurement notes: In vivo PK (cannulated rat, IV and PO)
- Details: rat, plasma, po, 30 mg/kg, PO 30 mg/kg, individual rats
Observed property: AUC(0-inf) (ng·h/mL)

• CC(Nc1ncnc2[nH]cnc12)c1nc2cccc(Cl)c2c(=O)n1-c1ccccc1 (stereo not shown) [Compound A] = 46800

----------
- Measurement notes: Mouse PK
- Format: in vivo
- Details: plasma, PO 20 mg/kg
Observed property: Cmax (ng/mL)

• CC(Nc1ncnc2[nH]cnc12)c1nc2cccc(Cl)c2c(=O)n1-c1ccccc1 (stereo not shown) [Compound A] = 1280

----------
- Tested on: LN18
- Measurement notes: pAkt pathway inhibition, LN18
- Format: cell-based
- Details: Homo sapiens, LN-18; LN18, Glioma
Observed property: EC50 (nM)

- CC(Nc1ncnc2[nH]cnc12)c1nc2cccc(Cl)c2c(=O)n1-c1ccccc1 (stereo not shown): 10
